Provenance of the data: patent US9624206B2

Listed next: entries and their corresponding MIC.
Tested on: E. coli ATCC25922
Test: Bacterial growth minimal inhibitory concentration (microdilution, CLSI M7-A7)
Assay type: cell-based
Settings: Escherichia coli, ATCC25922; quinolone-sensitive strain; cation-adjusted Mueller-Hinton Broth
Measured endpoint: MIC

>>> print(df.to_string())
                           smiles_structure  measured_endpoint  recorded_value
0  CSc1ccc(-c2ccc3c(cnn3CC[C@](C)(C(=O)NO)S(C)(=O)=O)c2)c(F)c1                MIC   ≤ 0.063 µg/mL
1  C[C@@H](O)c1ccc(C#Cc2ccc3c(cnn3CC[C@](C)(C(=O)NO)S(C)(=O)=O)c2F)cc1                MIC   ≤ 0.063 µg/mL
2  C[C@@](CCn1ncc2c(F)c(C#CC#C[C@H]3C[C@@H]3CO)ccc21)(C(=O)NO)S(C)(=O)=O                MIC   ≤ 0.063 µg/mL

----------
System: E. coli ATCC25922
Test: Bacterial growth minimal inhibitory concentration (microdilution, CLSI M7-A7)
Assay type: cell-based
Conditions: Escherichia coli, ATCC25922; quinolone-sensitive strain; cation-adjusted Mueller-Hinton Broth
Measured MIC accompanies every entry in the list below.
Measured endpoint: MIC

In [3]: df
Out[3]:
                           smiles_structure  measured_endpoint  recorded_value
0  C[C@@](CCn1ccc2cc(C#CC#C[C@H]3C[C@@H]3CO)ccc21)(C(=O)NO)S(C)(=O)=O                MIC   ≤ 0.063 µg/mL
1  C[C@H](O)c1ccc(C#Cc2ccc3c(ccn3CC[C@](C)(C(=O)NO)S(C)(=O)=O)c2)cc1                MIC   ≤ 0.063 µg/mL
2  C[C@@H](O)c1ccc(C#Cc2ccc3c(cnn3CC[C@](C)(C(=O)NO)S(C)(=O)=O)c2)cc1.Cl                MIC   ≤ 0.063 µg/mL
